Recorded values, source patent US20120115724A1.

test system: Ipomea hederaceae (IPOHE); test: Pre-emergence biological efficacy (Example 13); format: in vivo; settings: Ipomoea hederacea, 312 h; pre-emergence, 1,000 g/ha, after 13 days; read-out: Percentage damage IPOHE
observed_property: pest or weed control at 1000 g/ha (%)
The answer is to be given in %; state only the numeric part.

A selection of reference data follows.
C=Cc1c(NCc2ccco2)nc(-c2ccc(Cl)c(OC)c2F)nc1C(=O)O [Compound 35] | 100
C=Cc1c(NCc2ccccc2[N+](=O)[O-])nc(-c2ccc(Cl)c(N(C)C)c2F)nc1C(=O)OC [Compound 16] | 0

Please find the next compound below.
input: Can you look up the measured pest or weed control at 1000 g/ha of C/C=C\c1c(N)nc(-c2ccc(Cl)c(N(C)C)c2F)nc1C(=O)OC [Compound 5] for me?
output: 20
